Listed here: items and their measured EC50.
ASSAY_TARGET: human SIRPαBIT (huSIRPαBIT), protein antigen (human) (UniProt P78324)
Sequence (P78324 31-370): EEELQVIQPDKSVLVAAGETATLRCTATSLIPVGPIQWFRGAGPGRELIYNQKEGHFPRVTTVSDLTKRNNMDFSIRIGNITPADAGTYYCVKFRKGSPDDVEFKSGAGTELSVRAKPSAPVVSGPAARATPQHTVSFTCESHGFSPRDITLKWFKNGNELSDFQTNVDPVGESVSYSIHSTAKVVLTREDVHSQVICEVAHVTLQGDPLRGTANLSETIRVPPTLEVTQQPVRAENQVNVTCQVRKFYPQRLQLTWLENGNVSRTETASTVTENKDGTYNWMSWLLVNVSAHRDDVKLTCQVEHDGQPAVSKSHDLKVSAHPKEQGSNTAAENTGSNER
TEST_DESCRIPTION: ELISA, antigen coated
Numbers only; they are read as µg/mL.

// query Name the recorded EC50 of the binder listed here: anti-SIRPα antibody 3 (antibody, human IgG1, kappa, L234A L235A, V domains shown, Rabbit variable regions on human IgG1 LALA / kappa) VH: QSVEESGGRLVTPGTPLTLACTVSGFSLISYYISWVRQAPEKGLEYIGIINIGGGASYASWAKGRFTISKTSTTVDLKITSPTPEDTATYFCAMSYGMDTGAFNIWGPGTLVTVSL VL: AQVLTQTPASVSAAVGGTVTISCQSSESVYKNNFLSWYQQKPGKPPKLLIYGASTLASGVPSRFKGSGSGTQFTLTISDLESDDAATYFCQGGYRTDIYPFGGGTEVVVKR
// result 0.024

// query Name the recorded EC50 of the binder listed here: anti-SIRPα antibody 9 (antibody, human IgG1, kappa, L234A L235A, V domains shown, Rabbit variable regions on human IgG1 LALA / kappa) VH: QSMEESGGRLVTPGTPLTLTCTASGFSLSNYGVSWVRQAPGKGLEWIGIIYGGSDITAYASWAKGRFTISKTSTTVDLTITSPTTEDTATYFCAKSYTNGMDYYNIWGPGTLVTVSL VL: AFDLTQTPSSVEAPVGGTVIIKCQASQSISSYLAWYQQKPGQPPKLLIYSASTLASGVSSRFKGSGSETQFPLTISDLESADAATYYCQSYYGSRSNVFGGGTEVVVKR
// result 0.026

// query Name the recorded EC50 of the binder listed here: anti-SIRPα antibody 8 (antibody, human IgG1, kappa, L234A L235A, V domains shown, Rabbit variable regions on human IgG1 LALA / kappa) VH: QSLEESGGRLVTPGTPLTLTCTASGVDLSNYAMGWVRQAPGKGLEWIGIIYAGGSTSYATWAKGRFTISKTSTTMDLKMTSPTTEDTATYFCARHRSDGYDYFHLWGPGTLVTVSL VL: AIDMTQTPASVSEPVGGTVTIKCQASQSISSWLAWYQQKPGQRPKLLIYDASKLASGVPSRFSGSGSGTEFTLTISGVQSDDAAAYYCQQGYAVSYVENIFGGGTEVVVKR
// result 0.02
